Cited source for all entries: patent US7767677B2

valueKind: melting point (°C)

# moleculeSmiles, melting point [°C]
data = [
    ("CCc1nc(-c2ccc(N3CCN(C(=O)c4ccccc4C(F)(F)F)CC3)nn2)no1", 204),
    ("CCCc1noc(-c2ccc(N3CCN(C(=O)c4ccccc4C(F)(F)F)CC3)nn2)n1", 226),
    ("CCCCCc1noc(-c2ccc(N3CCN(C(=O)c4ccccc4C(F)(F)F)CC3)nn2)n1", 164),
    ("CCCCc1nc(-c2ccc(N3CCN(C(=O)c4ccccc4C(F)(F)F)CC3)nn2)no1", 175),
]
